Reference source for all entries: patent US11512079B2

A collection of compounds and their measured minimal effective concentration
- Tested on: Rhizomucor pusillus 46342
- PROTOCOL_TEXT: In vitro antifungal assay (Example IX), microdilution broth, MEC
- Format: cell-based
- CONDITION_DESCRIPTION: minimum effective concentration (shortening of hyphae), 35° C., 40-48 h, RPMI1640

Take a look at these entries with their results.
{"COMPOUND": "Nc1ncccc1-c1cc(Cc2ccc(-c3ccc(F)cc3)nc2)no1 [compound 205]", "READOUT_TYPE": "minimal effective concentration", "RESULT": "0.1 to 1 µg/mL"}
{"COMPOUND": "Nc1ncccc1-c1cc(Cc2ccc(CCSCCOC=O)cc2)no1 [compound 98]", "READOUT_TYPE": "minimal effective concentration", "RESULT": "> 1 µg/mL"}
{"COMPOUND": "Nc1ncccc1-c1cc(Cc2ccc(OCc3ccncc3)cc2)no1 [Example 139]", "READOUT_TYPE": "minimal effective concentration", "RESULT": "> 1 µg/mL"}
{"COMPOUND": "Nc1ncccc1-c1cc(Cc2ccc(N3CCCCC3)nc2)no1 [compound 230]", "READOUT_TYPE": "minimal effective concentration", "RESULT": "> 1 µg/mL"}

Alright, here's another compound for you.
QUERY: Determine its reported minimal effective concentration: [N-]=[N+]=Nc1cccc(NCc2ccc(Cc3cc(-c4cccnc4N)on3)cc2)c1 [compound 231]
RESULT: 0.1 to 1 µg/mL

----------
- Tested on: Aspergillus fumigatus MYA3626
- PROTOCOL_TEXT: In vitro antifungal assay (Example IX), microdilution broth, MEC
- Type: cell-based
- CONDITION_DESCRIPTION: minimum effective concentration (shortening of hyphae), 35° C., 40-48 h, RPMI1640
A collection of compounds and their measured minimal effective concentration

Take a look at these entries with their results.
{"SMILES_CODE": "Nc1ncccc1-c1cc(Cc2ccc(Cn3cncn3)cc2)no1", "RESULT": "> 1 µg/mL"}
{"SMILES_CODE": "Nc1ncccc1-c1cc(Cc2ccc(OCCn3cccn3)nc2)no1", "RESULT": "> 1 µg/mL"}
{"SMILES_CODE": "Nc1ncccc1-c1cc(Cc2cnc(OCc3cccc(F)c3)nc2)no1", "RESULT": "0.01 to 0.1 µg/mL"}
{"SMILES_CODE": "Nc1ncccc1-c1cc(Cc2ccc(OCC3CCC3)nc2)no1", "RESULT": "0.01 to 0.1 µg/mL"}
{"SMILES_CODE": "Nc1ncccc1-c1cc(Cc2cnc(OCc3cccc(F)c3)c(F)c2)no1", "RESULT": "0.01 to 0.1 µg/mL"}
{"SMILES_CODE": "Nc1ncccc1-c1cc(Cc2ccc(Cc3cccc(C(F)(F)F)n3)cc2)no1", "RESULT": "0.1 to 1 µg/mL"}
{"SMILES_CODE": "CC(C)=CCOc1ccc(Cc2cc(-c3ccc(N)nc3N)on2)cc1", "RESULT": "0.01 to 0.1 µg/mL"}
{"SMILES_CODE": "Nc1ncccc1-c1cc(Cc2ccc(OCc3ccnc(Br)c3)nc2)no1", "RESULT": "0.1 to 1 µg/mL"}
{"SMILES_CODE": "Nc1ncccc1-c1cc(Cc2ccnc(OCc3ccccc3F)c2)no1", "RESULT": "0.01 to 0.1 µg/mL"}
{"SMILES_CODE": "Nc1ncccc1-c1cc(Cc2cnc(Oc3ccccc3)c(F)c2)no1", "RESULT": "0.01 to 0.1 µg/mL"}

QUERY: For Aspergillus fumigatus MYA3626, give minimal effective concentration of the listed compound: `Nc1ncccc1-c1cc(Cc2ccc(OCC3COC3)nc2)no1`
RESULT: > 1 µg/mL

QUERY: For Aspergillus fumigatus MYA3626, give minimal effective concentration of the listed compound: `Nc1ncccc1-c1cc(Cc2ccc(OCc3cccs3)nc2)no1`
RESULT: 0.01 to 0.1 µg/mL

QUERY: For Aspergillus fumigatus MYA3626, give minimal effective concentration of the listed compound: `Nc1ncccc1-c1cc(Cc2ccc(Oc3cccc(Cl)n3)cc2)no1`
RESULT: 0.01 to 0.1 µg/mL

QUERY: For Aspergillus fumigatus MYA3626, give minimal effective concentration of the listed compound: `Nc1ccc(-c2cc(Cc3ccc(OCc4nccs4)cc3)no2)c(N)n1`
RESULT: 0.1 to 1 µg/mL

QUERY: For Aspergillus fumigatus MYA3626, give minimal effective concentration of the listed compound: `Nc1ncccc1-c1cc(Cc2ccc(Nc3ccccc3)cc2)no1`
RESULT: 0.01 to 0.1 µg/mL

QUERY: For Aspergillus fumigatus MYA3626, give minimal effective concentration of the listed compound: `Nc1ncccc1-c1cc(Cc2ccc(CNc3ccnc(F)c3)cc2)no1`
RESULT: 0.01 to 0.1 µg/mL

QUERY: For Aspergillus fumigatus MYA3626, give minimal effective concentration of the listed compound: `Nc1ncccc1-c1cc(Cc2ccc(OCc3ccc(F)cc3)nc2)no1`
RESULT: 0.1 to 1 µg/mL

QUERY: For Aspergillus fumigatus MYA3626, give minimal effective concentration of the listed compound: `[N-]=[N+]=Nc1cccc(NCc2ccc(Cc3cc(-c4cccnc4N)on3)cc2)c1`
RESULT: 0.01 to 0.1 µg/mL

QUERY: For Aspergillus fumigatus MYA3626, give minimal effective concentration of the listed compound: `Nc1ncccc1-c1cc(Cc2ccc(Cc3cnoc3)cc2)no1`
RESULT: 0.01 to 0.1 µg/mL
